Experiment: AUC (0 to 24 hrs) in human SK-OV-3 cells xenografted in nu/nu mouse xenograft model measured in tumor at 120 mg/kg, po QD
Type: ADME, organism-based
Set-up: time < 24 hr, route oral, dose 120 mg/kg
quantity kind: AUC at 24 h (µM·h)
Give the number; µM·h is assumed, so skip it.

Query: May I ask what AUC at 24 h has been recorded for CC[C@@H](NC(=O)c1ccc(OC)nc1)[C@H]1CC[C@@H](c2ccnc(OC)c2C(F)F)CC1 ?
Reply: 13

---

Experiment: Half life in mouse at 1 mg/kg, iv
Assay type: ADME, organism-based
Settings: in vivo
quantity kind: half-life (h)
Only the number, expressed in h, is required.

Query: Given the entry CC[C@@H](NC(=O)c1ccc(OC)nc1)[C@H]1CC[C@@H](c2ccnc(OC)c2C(F)F)CC1 , report its measured half-life.
Reply: 5

The reported numbers originate from ChEMBL document CHEMBL4823289.
